Measured values drawn from patent US12060387B2 for this set.

Assay: Cell toxicity / % cell viability by flow cytometry (cells in total events v. untreated)
Type: cell-based, Human
Conditions: human, HeLa cells, Cell viability (%) (±St. Dev.; n = 3), FIG. 13B; HeLa; GFP-NLS 5 μM; shuttle 3 μM; 1 hour; read-out: Cell viability (%) (±St. Dev.; n = 3), FIG. 13B
Where no end group is shown, it is not given here.
endpoint.name: viability at 1 h, 3 µM (%)
Answers are plain numbers, in %.

Q: So what does the record say about viability at 1 h, 3 µM for KWKLFKKIGAVLKVLTTGYGRKKRRQRRRC [CM18-TAT-Cys] ?
Ans: 94
